Recorded Metric: melting point

Smiles String | Result
CC(F)(F)COc1ncc(-c2cccc(COC(=O)NC(=N)N)n2)cn1 | 195 °C
N=C(N)NC(=O)OCc1cccc(-c2cnc(OC[C@H]3CC3(F)F)nc2)n1 | 193 to 196 °C
N=C(N)NC(=O)OCc1cccc(-c2cnc(OCCCC(F)(F)F)nc2)n1 | 194 to 197 °C
N=C(N)NC(=O)OCc1cccc(-c2cnc(OCc3ccon3)nc2)n1 | 183 °C

---

A collection of compounds and their measured log10 IC50
Target: AOC1 (Homo sapiens)
Construct: purchased R&D Systems 8297-AO-010
Sequence (P19801 20-751): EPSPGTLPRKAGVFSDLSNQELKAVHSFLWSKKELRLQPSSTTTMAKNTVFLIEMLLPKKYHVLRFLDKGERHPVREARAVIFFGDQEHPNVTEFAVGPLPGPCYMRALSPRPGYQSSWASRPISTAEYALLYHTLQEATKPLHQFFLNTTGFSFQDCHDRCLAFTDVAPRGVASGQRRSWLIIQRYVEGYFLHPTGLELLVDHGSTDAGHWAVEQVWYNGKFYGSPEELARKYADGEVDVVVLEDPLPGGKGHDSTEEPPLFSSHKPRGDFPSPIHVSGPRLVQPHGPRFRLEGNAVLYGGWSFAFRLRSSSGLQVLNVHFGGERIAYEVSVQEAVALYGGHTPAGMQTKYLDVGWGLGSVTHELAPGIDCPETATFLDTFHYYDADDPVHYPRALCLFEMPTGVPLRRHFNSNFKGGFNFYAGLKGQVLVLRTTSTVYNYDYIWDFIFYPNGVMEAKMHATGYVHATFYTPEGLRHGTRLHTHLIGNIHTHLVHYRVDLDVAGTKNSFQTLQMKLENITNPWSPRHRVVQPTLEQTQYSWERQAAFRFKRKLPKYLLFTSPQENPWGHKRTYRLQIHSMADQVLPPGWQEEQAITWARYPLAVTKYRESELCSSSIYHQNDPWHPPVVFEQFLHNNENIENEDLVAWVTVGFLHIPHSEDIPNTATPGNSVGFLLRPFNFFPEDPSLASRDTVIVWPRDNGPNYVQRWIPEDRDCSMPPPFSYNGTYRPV
Assay: AOC1 biochemical assay (Amplex Red)
Conditions: Table 2, comparison with compounds of EP 2 695 881; read-out: IC50 AOC1
Recorded Metric: log10 IC50 (log10 of the value in nM)

Compound | log10 IC50
N=C(N)NC(=O)OCc1cccc(-c2cnc(N3CCOCC3)nc2)c1F [Ex. 81, p. 229, reference compound] | 2.24
COC1CN(c2ncc(-c3cccc(COC(=O)NC(=N)N)c3F)cn2)C1 [Ex. 63, p. 227, reference compound] | 2.00
CC(=O)N1CCC(COc2ncc(-c3cccc(COC(=O)NC(=N)N)c3F)cn2)CC1 [Ex. 11, p. 221, reference compound] | 0.78
N=C(N)NC(=O)OCc1cccc(-c2cnc(OCC3CCN(C(=O)C4CC4)CC3)nc2)c1F [Ex. 74, p. 229, reference compound] | 0.90
COCCOc1ncc(-c2cccc(COC(=O)NC(=N)N)c2F)cn1 [Ex. 197, p. 243, reference compound] | 1.99
CCOc1ncc(-c2cccc(COC(=O)NC(=N)N)c2F)cn1 [Ex. 136, p. 235, reference compound] | 1.78

---

Molecular target: AOC1 (Homo sapiens)
Construct: purchased R&D Systems 8297-AO-010
Experiment: AOC1 biochemical assay (Amplex Red)
Settings: Table 1; read-out: AOC1 IC50
Recorded Metric: IC50

Compound | Result
N=C(N)NC(=O)OCc1cccc(-c2cnc(OCC3(F)CC3)nc2)n1 [Example 17] | 3620 nM
N=C(N)NC(=O)OCc1cccc(-c2cnc(OCCCC(F)(F)F)nc2)n1 [Example 36] | 1150 nM
CC(Oc1ncc(-c2cccc(COC(=O)NC(=N)N)n2)cn1)c1ccon1 (stereo not drawn) [Example 28] | 3290 nM
N=C(N)NC(=O)OCc1cccc(-c2cnc(OC[C@H]3CC3(F)F)nc2)n1 [Example 26] | 2520 nM
CC(F)(F)COc1ccc(-c2cccc(COC(=O)NC(=N)N)n2)cn1 [Example 18] | 1400 nM
N=C(N)NC(=O)OCc1cccc(-c2cnc(OCc3cscn3)nc2)n1 [Example 30] | 978 nM
N=C(N)NC(=O)OCc1cccc(-c2cnc(OCc3cncs3)nc2)n1 [Example 29] | 659 nM
CC(F)(F)COc1ncc(-c2cccc(COC(=O)NC(=N)N)n2)cn1 [Example 20] | 7210 nM
N#CC1(COc2ncc(-c3cccc(COC(=O)NC(=N)N)n3)cn2)CC1 [Example 21] | 3190 nM

---

Target: AOC3 (Homo sapiens, UniProt Q16853)
Construct: expressed in transfected cells; host or cells: CHO cells
Sequence (Q16853 whole entry): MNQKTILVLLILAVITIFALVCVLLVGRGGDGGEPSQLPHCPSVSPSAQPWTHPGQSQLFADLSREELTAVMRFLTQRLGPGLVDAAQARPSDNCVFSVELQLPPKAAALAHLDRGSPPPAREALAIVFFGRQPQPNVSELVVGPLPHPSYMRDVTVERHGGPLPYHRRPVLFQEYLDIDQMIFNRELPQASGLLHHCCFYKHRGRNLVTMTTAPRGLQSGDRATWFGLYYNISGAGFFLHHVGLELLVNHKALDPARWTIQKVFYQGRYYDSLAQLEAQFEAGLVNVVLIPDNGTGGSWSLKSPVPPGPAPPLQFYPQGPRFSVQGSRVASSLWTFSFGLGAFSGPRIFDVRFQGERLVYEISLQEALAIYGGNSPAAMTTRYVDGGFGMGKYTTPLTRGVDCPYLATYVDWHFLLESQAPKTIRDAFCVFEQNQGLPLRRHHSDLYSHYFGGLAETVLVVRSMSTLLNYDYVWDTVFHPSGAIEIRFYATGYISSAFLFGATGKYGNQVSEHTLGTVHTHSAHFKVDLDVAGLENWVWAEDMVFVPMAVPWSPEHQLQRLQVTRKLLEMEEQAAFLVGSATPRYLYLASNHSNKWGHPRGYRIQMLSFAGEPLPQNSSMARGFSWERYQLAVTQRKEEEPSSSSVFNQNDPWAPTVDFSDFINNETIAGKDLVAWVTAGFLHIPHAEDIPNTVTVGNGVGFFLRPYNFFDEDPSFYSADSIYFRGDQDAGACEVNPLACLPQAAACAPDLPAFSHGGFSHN
Experiment: AOC3 biochemical assay (MAO-Glo)
Settings: Table 1; read-out: AOC3 IC50
pIC50: −log10 of the molar value.
Recorded Metric: pIC50

Smiles String | Numeric Value
N=C(N)NC(=O)OCc1cccc(-c2cnc(OCC3CCOCC3)nc2)n1 | 8.52
N=C(N)NC(=O)OCc1cccc(-c2cnc(OCc3cncs3)nc2)n1 | 8.70
N=C(N)NC(=O)OCc1cccc(-c2cnc(OCc3cscn3)nc2)n1 | 8.52
N#CC1(COc2ncc(-c3cccc(COC(=O)NC(=N)N)n3)cn2)CCC1 | 8.40
CC(F)(F)COc1ccc(-c2cccc(COC(=O)NC(=N)N)n2)cn1 | 8.52
CCOc1ncc(-c2cccc(COC(=O)NC(=N)N)n2)cn1 | 7.82
COC1CN(c2ncc(-c3cccc(COC(=O)NC(=N)N)n3)cn2)C1 | 8.70
COc1ncc(-c2cccc(COC(=O)NC(=N)N)n2)cn1 | 8.00
N#CC1(COc2ncc(-c3cccc(COC(=O)NC(=N)N)n3)cn2)CC1 | 8.40
